experiment: chemical genetic growth profiling, strain panel (AID 1159580);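 note: tested at 20 µM; growth read once vehicle control cultures reached saturation at 30 °C; 1 = growth at the plate median or of vehicle wells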; details: S. cerevisiae deletion strains, growth OD, locus YLR221C, strain rsa3, stronger effect = lower value
In all, about 5,500 compounds went through this assay and about 2,000 (36%) were called active. Not shown: some 18% with an inconclusive outcome. Some of the results follow.
So basically: is normalized growth under 1? Then class 1. Not under? Then class 0.

compound: CC(C)c1ccc2c(c1)CCC1C(C)(C(N)=O)CCCC21C (configuration not stated)
category label: class 1

compound: CC(C)c1ccc2c(c1)CCC1[C@](C)(CN)CCC[C@]21C (some centres not stated)
category label: class 1

compound: O=C1NC(O)=NC1(c1ccccc1)c1ccccc1
category label: class 0

compound: C=C1C[C@]23C[C@@]1(O)CC[C@H]2[C@@]12C=C[C@H](O)[C@@](C)(C(=O)O1)[C@H]2[C@@H]3C(=O)O
category label: class 0

Attention now shifts to the item below.
[ask] Could you please tell me whether normalized growth recorded for O=P1(N(CCCl)CCCl)NCCCO1 (configuration not stated) is less than 1?
[reply] class 0
